Provide the reported pEC50 of each item.
# target.under.test: T1, recombinant human Siglec15-his protein (human, UniProt Q6ZMC9 20-263)
# T1 construct: In house made; Biotin-labeled in the capture ELISA
# T1 sequence: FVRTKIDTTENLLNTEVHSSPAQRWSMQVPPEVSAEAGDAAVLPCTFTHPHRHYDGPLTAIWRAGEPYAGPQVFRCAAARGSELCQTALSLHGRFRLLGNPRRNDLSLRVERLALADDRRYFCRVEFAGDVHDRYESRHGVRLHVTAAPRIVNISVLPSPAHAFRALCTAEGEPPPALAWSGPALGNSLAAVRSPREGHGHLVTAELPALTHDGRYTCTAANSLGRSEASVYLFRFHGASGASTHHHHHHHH
# measurement.notes: capture ELISA, captured antibody, biotin-labeled human Siglec15-his in solution
One number for each entry, as −log10 of the molar value.

| binder | meas.value |
| --- | --- |
| A2A5C7E8-3 (antibody, human IgG1, kappa, V domains shown, Variant of A2A5C7E8 modified in VH CDR2 (X2 = K)) VH: EVQLVQSGAEVKKPGESLRISCKGSGYSFTTYWISWVRQMPGKGLEWMGLIDPSDSYTNYSPSFKGHVTISTDKSISTAYLQWSSLKASDTAMYYCARGGYYGSEEDYWGQGTLVTVSS VL: EIVLTQSPGTLSLSPGERATLSCRASQSVSSSRLAWFQQKSGQAPRLLIFDASSRATGIPDRFSGSGSGTDFTLTISRLEPEDFAVYYCQQYGSSPRTFGQGTKVEFKR | 10.04 |

Look at each binder and report its pEC50.
1. A2A5C7E8-2 (antibody, human IgG1, kappa, V domains shown, Variant of A2A5C7E8 modified in VH CDR2 (X1 = E)) VH: EVQLVQSGAEVKKPGESLRISCKGSGYSFTTYWISWVRQMPGKGLEWMGLIDPSESYTNYSPSFQGHVTISTDKSISTAYLQWSSLKASDTAMYYCARGGYYGSEEDYWGQGTLVTVSS VL: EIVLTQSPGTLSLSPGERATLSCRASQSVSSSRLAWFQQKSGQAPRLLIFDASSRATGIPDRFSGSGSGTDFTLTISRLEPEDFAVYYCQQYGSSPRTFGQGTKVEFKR
2. A2A5C7E8 (antibody, V domains shown, Fully human antibody from transgenic mouse hybridoma; also called A2A5C7E8-1) VH: EVQLVQSGAEVKKPGESLRISCKGSGYSFTTYWISWVRQMPGKGLEWMGLIDPSDSYTNYSPSFQGHVTISTDKSISTAYLQWSSLKASDTAMYYCARGGYYGSEEDYWGQGTLVTVSS VL: EIVLTQSPGTLSLSPGERATLSCRASQSVSSSRLAWFQQKSGQAPRLLIFDASSRATGIPDRFSGSGSGTDFTLTISRLEPEDFAVYYCQQYGSSPRTFGQGTKVEFK

A)
[9.30, 10.07]
